Hey, just so you know, these numbers are from PubChem BioAssay AID504832.

Assay: Primary qHTS for delayed death inhibitors of the malarial parasite plastid, 48 hour incubation
Conditions: P. falciparum luciferase growth in erythrocytes; series mostly up to 28.7 µM
Hit rate of the full screen: of about 310,000 compounds, about 18,000 (5.8%) were called active. Inconclusive results (about 22%) are left out. The call rests on the fitted dose curve; in most records, active means well fitted inhibition curve with a large enough effect; inconclusive means small, poorly fitted or top-dose-only effect, or another doubt; inactive means no such curve, though single readings can be large or run the other way. The list comes from a sample in which actives are over-represented; it also holds close analogues and randomly drawn compounds.
Possible outcomes: 1 (yes) = active, 0 (no) = inactive

smilesEntry	groupLabel
COCCN1C(=O)N[C@@H](c2ccccc2)C(C(=O)OC)=C1C	0 (no)
N#C/C=C\Oc1ccc(Cl)cc1N	1 (yes)
COc1ccc(Cl)cc1C(=O)NCC#N	0 (no)
COC(=O)C1=C(C)N(C)C(C)=C(C(=O)OC)C1c1cccc(Br)c1	1 (yes)
Cc1ccc(NS(=O)(=O)c2ccc(C(=O)NCCCN3CCOCC3)cc2)cc1	0 (no)
COc1ccc(C(=O)NC2CC(C)(C)NC(C)(C)C2)cc1OC	0 (no)

====

Assay: Primary qHTS for delayed death inhibitors of the malarial parasite plastid, 48 hour incubation; further: potency means the concentration at half of the fitted maximal effect
Conditions: P. falciparum luciferase growth in erythrocytes; series mostly up to 28.7 µM
In all, about 310,000 compounds went through this assay and about 18,000 (5.8%) were called active. Inconclusive results (about 22%) are left out. The sample holds actives, similar compounds and a random draw of the others, so the mix is not that of the screen.

compound	Potency
O=C(NCc1ccc2c(c1)OCO2)C1CCCN(S(=O)(=O)c2cccs2)C1 (stereo not drawn)	9.28 µM (active)
CSc1ncc(C(=O)Nc2ccc(C)cc2C)c(C)n1	inactive
COc1ccc(CCC(C)N2CCc3ccccc3C2)cc1 (stereo not drawn)	inactive
Cc1ccc(S(=O)(=O)NCc2ccc(C(=O)NC3CCC(C)CC3)cc2)cc1 (stereo not drawn)	inactive
O=C(NCc1ccccc1)C1CCCN(S(=O)(=O)c2cccs2)C1 (stereo not drawn)	inactive
CC1(C)Cc2cccc(OCC(=O)NCc3ccccc3)c2O1	inactive
O=C(Cc1cccs1)Nc1ccc([N+](=O)[O-])cc1	inactive
Cc1ccc(S(=O)(=O)N(Cc2ccc(Cl)cc2)c2ccccc2C(=O)NCc2cccnc2)cc1	13.1 µM (active)
O=C(O)c1ccc(N/N=C/c2cn(-c3ccccc3)nc2-c2cccs2)cc1	0.828 µM (active)
CC(OC(=O)CCCOc1ccccc1)C(=O)Nc1ccc(Cl)cn1 (stereo not drawn)	inactive
COc1ccc(C(CC(=O)N2CCN(c3ccccc3)CC2)c2c(O)cc(OC)cc2OC)cc1 (stereo not drawn)	10.4 µM (active)
O=C(O)c1ccccc1-c1ccccc1C(=O)NCc1cccnc1	inactive
Cn1c(SCC(=O)N2CCOCC2)nnc1-c1ccc2ncccc2c1	inactive
Cn1cc(/C=C/c2nc3ccccc3c(=O)n2-c2cccc([N+](=O)[O-])c2)c2ccccc21	10.4 µM (active)
O=C1/C(=C/c2ccc(F)cc2)SC(=S)N1CCCC(=O)N1CCCCC1CCO (stereo not drawn)	11.7 µM (active)
CCS(=O)(=O)N1CCCC(C(=O)NCc2ccc(C)cc2)C1 (stereo not drawn)	inactive
CN1C(=O)c2ccc(C(=O)Nc3ccc(Br)cn3)cc2C1=O	inactive
CSc1ccc(Cl)c(C(=O)OCC(=O)N2CCNC2=O)c1	inactive
CC(C)c1ccc(/C=C/C(=O)NCCCN2CCOCC2)cc1	inactive
CCCCn1c(N)c(N(CCC(C)C)C(=O)COC(=O)c2cccnc2OCC)c(=O)[nH]c1=O	inactive
CCOC(=O)C(C)n1cnc2c(nnn2-c2ccc(F)cc2)c1=O (stereo not drawn)	inactive
CC(OC(=O)c1ccccc1NCCO)C(=O)Nc1ccnn1C(C)C (stereo not drawn)	inactive
O=C(O)/C=C/c1cn(-c2ccccc2)nc1-c1cccs1	inactive
CC(=O)Nc1ccc(NC(=O)CSC2=NS(=O)(=O)c3ccccc3N2)cc1	inactive
Cc1ccc(C(c2nnnn2C(C)(C)C)N2CCc3ccccc3C2)cc1 (stereo not drawn)	inactive
Cc1ccc(-n2ncc3c2CC(C)(C)CC3NC(=O)CCc2cnn(C)c2)cc1 (stereo not drawn)	inactive
CCN(c1ccc2c(c1)OCO2)S(=O)(=O)c1cc(Br)cc2c1N(C(=O)C1CC1)CC2	1.47 µM (active)
O=C(Nc1c2c(nn1-c1ccccc1)CS(=O)(=O)C2)C1CCCC1	inactive
CC(C)CNC(=O)c1cc(-c2ccc(Br)cc2)on1	inactive
COc1cccc(CNC(=O)COc2cc(O)c3c(c2)OC(C)(C)CC3=O)c1	inactive
CCCCn1c(N)c(N(CCC(C)C)C(=O)c2ccc([N+](=O)[O-])o2)c(=O)[nH]c1=O	inactive
C=CCn1c(=O)c(C(=O)Nc2ncccc2O)c(O)c2ccccc21	inactive
C#CCOCCOCCOCCNc1nc(N2CCN(C(=O)[C@H](C(C)C)n3cc(CCO)nn3)CC2)nc(N2CCN(C(=O)[C@H]([C@@H](C)CC)n3cc(CCCN=C(N)N)nn3)CC2)n1	inactive
Cc1ccc(S(=O)(=O)NCCC(=O)Nc2cccc(S(N)(=O)=O)c2)cc1C	inactive
O=C(c1cc2ccccc2o1)N1CCN(c2cccc(C(F)(F)F)c2)CC1	inactive
CS(=O)(=O)N(CC(=O)N1CCN(Cc2ccc3c(c2)OCO3)CC1)c1ccc2c(c1)OCO2	inactive
CC(=O)Nc1ccc(N2C(=O)CC(Sc3nccc(C)n3)C2=O)cc1 (stereo not drawn)	inactive
O=C(CNS(=O)(=O)c1ccccc1)N1CCN(C(=O)c2ccco2)CC1	inactive
Cc1ccc(C(=O)N/C(=C\c2cn(C)c3ccccc23)C(=O)N2CCN(C)CC2)cc1	inactive
COc1ccccc1OC(C)C(=O)Nc1ccc(S(=O)(=O)Nc2nccs2)cc1 (stereo not drawn)	inactive
COc1cccc(N2CC(NC(=O)c3ccc4ccccc4c3)CC2=O)c1 (stereo not drawn)	inactive
CC(C)Cc1cc(C(=O)NCCc2ccccc2)no1	inactive
O=C1c2ccccc2C(=O)C1c1ccccc1F	inactive
